- tested_system: Retinaldehyde dehydrogenase 3 (Homo sapiens)
- method_notes: qHTS for Inhibitors of the Aldehyde Dehydrogenase Family (ALDH1A3) Primary screen (AID 2061315)
- assay_context: ALDH inhibition qHTS; series mostly up to 56 µM
Records with an inconclusive call do not appear. Activity calls are given as the source filed them. Calls come from the whole dose curve; as a rule, active = well fitted inhibition curve with a large enough effect; inconclusive = small, poorly fitted or top-dose-only effect; inactive = no such curve, though single readings can be large or run the other way.
observation_type: activity change, negative = inhibition

Example results:
Cn1nnnc1Sc1ncnc2scc(-c3ccc4c(c3)OCO4)c12 :: inactive
O=C(NCCc1ccc(OCC(F)(F)F)c(OCC(F)(F)F)c1)c1cc2sccc2n1Cc1ccccc1 :: inactive
COc1ccc(CC(=O)Nc2ccc(S(=O)(=O)Nc3cc(C)on3)cc2)cc1C :: inactive
COc1cccc(NC(=S)N2CCN(c3cc(Cl)cc(Cl)c3)CC2)n1 :: inactive
CC(=O)NC(c1cc(Cl)c2cccnc2c1O)C1CC1 (stereo not given) :: inactive
Cc1cc(C)nc(NC(=S)N2CCN(c3ccc(Cl)cc3F)CC2)c1 :: inactive
CC1(C(=O)O)CCCC2(C)C3CCC4CC3(CCC12)CC4(O)CO (stereo not given) :: inactive
O=C1CCc2cc(S(=O)(=O)Nc3ccc4c(c3)OCCO4)ccc2N1 :: inactive

-- ask Value lookup for activity change, negative = inhibition; key = `Cc1cc(C)nc(NC(=S)N2CCN(c3ccccn3)CC2)c1`
-- reply inactive

-- ask Another molecule: `Cc1cc(NS(=O)(=O)c2ccc(NC(=O)Cc3ccc(Cl)c(F)c3)cc2)no1`
-- reply inactive

-- ask Another molecule: `CCC/C=C\C=C/CCc1cc(O)c([C@@H]2O[C@H](CO)[C@@H](O)[C@H](O)[C@H]2O)c(O)c1C(=O)OC`
-- reply inactive

-- ask Another molecule: `Cc1cc2c(s1)c1cnn(Cc3ccccc3F)c(=O)c1n2C(C)C`
-- reply inactive

-- ask Another molecule: `Cc1cccc(C(=O)NC2CCN(C#N)CC2)c1`
-- reply inactive

-- ask Another molecule: `CCOc1ccc(CCNC(=O)c2cc3sccc3n2CCN2CCOCC2)cc1OCC`
-- reply inactive

-- ask Another molecule: `Cn1nnnc1Sc1ncnc2scc(-c3ccc(Br)cc3)c12`
-- reply inactive

-- ask Another molecule: `Cc1ccnc(NC(=S)N2CCN(c3cc(C(F)(F)F)cc(C(F)(F)F)c3)CC2)c1`
-- reply inactive

-- ask Another molecule: `Cc1cn([C@H]2C[C@H](N[S+](=O)([O-])c3ccc4c(c3)OCCO4)[C@@H](CO)O2)c(=O)[nH]c1=O`
-- reply inactive

-- ask Another molecule: `COc1ccc(N2C(=O)c3ccccc3C2=O)cc1`
-- reply inactive

-- ask Another molecule: `O=C(c1ccc(F)c(F)c1Nc1ccc(I)cc1F)N1CC(O)([C@@H]2CCCCN2)C1`
-- reply inactive

-- ask Another molecule: `FC(F)(F)c1cccc(N2CCN(C(=S)Nc3cccnc3)CC2)c1`
-- reply inactive

-- ask Another molecule: `COc1ccc(C(=O)Nc2nnc(-c3ccco3)o2)cc1`
-- reply inactive

-- ask Another molecule: `Cc1cc(C)nc(NC(=S)N2CCN(C3=Nc4ccccc4Oc4ccccc43)CC2)c1`
-- reply inactive

-- ask Another molecule: `Nc1cccc(OCCn2c(CCNC(=O)C3CCCCC3)nc3ccccc32)c1`
-- reply inactive

-- ask Another molecule: COc1ccc(C2Nc3ccccc3C(=O)N2Cc2ccc(CNC(=O)CO)cc2)cc1COc1ccc(NC(C)=O)cc1 (stereo not given)
-- reply inactive
